FYI, the data here is from ChEMBL document CHEMBL1142149.

Test system: Staphylococcus aureus
Test: Antimicrobial activity against methicillin-susceptible Staphylococcus aureus ATCC 29213
Type: functional
Property: MBC50 (µg/mL)
Numeric only. Scale: µg/mL

Reference set (2 entries):
CC1(C)S[C@@H]2[C@H](NC(=O)[C@H](N)c3ccc(O)cc3)C(=O)N2[C@H]1C(=O)O [AMOXICILLIN] = 8
C[C@@H](O)[C@H]1C(=O)N2C(C(=O)O)=C(SCCNC=N)C[C@H]12 [IMIPENEM ANHYDROUS] = 4

Exercise: Please indicate MBC50 recorded for CN[C@H](CC(C)C)C(=O)N[C@H]1C(=O)N[C@@H](CC(N)=O)C(=O)N[C@H]2C(=O)N[C@H]3C(=O)N[C@H](C(=O)N[C@H](C(=O)O)c4cc(O)cc(O)c4-c4cc3ccc4O)[C@H](O)c3ccc(c(Cl)c3)Oc3cc2cc(c3O[C@@H]2O[C@H](CO)[C@@H](O)[C@H](O)[C@H]2O[C@H]2C[C@](C)(N)[C@H](O)[C@H](C)O2)Oc2ccc(cc2Cl)[C@H]1O [VANCOMYCIN]
Key: 0.5
